The origin of these recorded values is the kinase profiling compilation of Christmann-Franck et al. (2016).

This section presents molecules with their documented residual activity values.
Target or test system: MARK1 (human) (UniProt Q9P0L2)
Sequence (Q9P0L2 whole entry, looked up): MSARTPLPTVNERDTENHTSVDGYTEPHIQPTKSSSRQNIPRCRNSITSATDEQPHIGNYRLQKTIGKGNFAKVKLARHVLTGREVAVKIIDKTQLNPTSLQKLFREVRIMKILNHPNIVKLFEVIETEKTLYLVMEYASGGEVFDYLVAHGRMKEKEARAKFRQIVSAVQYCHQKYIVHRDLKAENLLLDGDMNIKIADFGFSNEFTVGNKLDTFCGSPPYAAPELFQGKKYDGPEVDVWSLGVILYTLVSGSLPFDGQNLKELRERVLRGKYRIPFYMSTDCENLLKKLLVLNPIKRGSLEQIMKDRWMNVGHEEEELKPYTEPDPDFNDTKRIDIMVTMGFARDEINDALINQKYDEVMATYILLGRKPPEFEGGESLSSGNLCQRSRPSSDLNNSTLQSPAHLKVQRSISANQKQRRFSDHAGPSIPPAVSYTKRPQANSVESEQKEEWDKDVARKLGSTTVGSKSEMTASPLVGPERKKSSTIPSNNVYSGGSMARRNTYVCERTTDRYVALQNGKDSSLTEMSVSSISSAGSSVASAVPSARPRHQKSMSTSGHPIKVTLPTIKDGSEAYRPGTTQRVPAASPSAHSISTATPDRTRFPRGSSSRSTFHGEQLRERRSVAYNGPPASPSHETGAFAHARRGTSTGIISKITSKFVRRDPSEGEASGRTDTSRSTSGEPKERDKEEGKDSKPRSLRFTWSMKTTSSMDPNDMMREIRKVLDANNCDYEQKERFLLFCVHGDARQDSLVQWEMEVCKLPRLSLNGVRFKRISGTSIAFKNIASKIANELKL
Test: radiometric filter-binding kinase assay, Kinase HotSpot
Recorded conditions: compound 0.5 µM; ATP 10 µM

>  <Structure smiles string>
COc1cc(Nc2c(C#N)cnc3cc(OCCCN4CCN(C)CC4)c(OC)cc23)c(Cl)cc1Cl

>  <residual activity [%]>
109

$$$$
>  <Structure smiles string>
COc1ccc(C(=O)Nc2sc3c(c2C(N)=O)CCCC3)cc1OC

>  <residual activity [%]>
97.9

$$$$
>  <Structure smiles string>
COc1cc2ncnc(Nc3ccc(Oc4ccccc4)cc3)c2cc1OC

>  <residual activity [%]>
93.3

$$$$
>  <Structure smiles string>
Cn1c2ccccc2c2c3c(c4c5ccccc5n(CCC#N)c4c21)CNC3=O

>  <residual activity [%]>
20.8

$$$$
>  <Structure smiles string>
Ic1cccc(CSc2nnc(-c3ccncc3)o2)c1

>  <residual activity [%]>
111

$$$$
>  <Structure smiles string>
O=C(c1cc2cc(O)ccc2[nH]1)c1cc2cc(O)ccc2[nH]1

>  <residual activity [%]>
66.3

$$$$
>  <Structure smiles string>
O=C1Nc2ccc(Br)cc2/C1=C\c1cc2c([nH]1)CCCC2

>  <residual activity [%]>
69

$$$$
>  <Structure smiles string>
N#Cc1c[nH]c2c[nH]/c(=N\Cc3cccnc3)cc2/c1=N\c1ccc(F)c(Cl)c1

>  <residual activity [%]>
91.6

$$$$
>  <Structure smiles string>
COc1ccc(Cl)cc1NC(=O)Nc1cc(C)nc2ccccc12

>  <residual activity [%]>
102

$$$$
